# system-name: NLRP3 inflammasome (Homo sapiens, UniProt Q96P20)
# Construct: host or cells: THP-1 human monocytic cells, treated with PMA and stimulated with gramicidin
# Sequence (Q96P20 whole entry): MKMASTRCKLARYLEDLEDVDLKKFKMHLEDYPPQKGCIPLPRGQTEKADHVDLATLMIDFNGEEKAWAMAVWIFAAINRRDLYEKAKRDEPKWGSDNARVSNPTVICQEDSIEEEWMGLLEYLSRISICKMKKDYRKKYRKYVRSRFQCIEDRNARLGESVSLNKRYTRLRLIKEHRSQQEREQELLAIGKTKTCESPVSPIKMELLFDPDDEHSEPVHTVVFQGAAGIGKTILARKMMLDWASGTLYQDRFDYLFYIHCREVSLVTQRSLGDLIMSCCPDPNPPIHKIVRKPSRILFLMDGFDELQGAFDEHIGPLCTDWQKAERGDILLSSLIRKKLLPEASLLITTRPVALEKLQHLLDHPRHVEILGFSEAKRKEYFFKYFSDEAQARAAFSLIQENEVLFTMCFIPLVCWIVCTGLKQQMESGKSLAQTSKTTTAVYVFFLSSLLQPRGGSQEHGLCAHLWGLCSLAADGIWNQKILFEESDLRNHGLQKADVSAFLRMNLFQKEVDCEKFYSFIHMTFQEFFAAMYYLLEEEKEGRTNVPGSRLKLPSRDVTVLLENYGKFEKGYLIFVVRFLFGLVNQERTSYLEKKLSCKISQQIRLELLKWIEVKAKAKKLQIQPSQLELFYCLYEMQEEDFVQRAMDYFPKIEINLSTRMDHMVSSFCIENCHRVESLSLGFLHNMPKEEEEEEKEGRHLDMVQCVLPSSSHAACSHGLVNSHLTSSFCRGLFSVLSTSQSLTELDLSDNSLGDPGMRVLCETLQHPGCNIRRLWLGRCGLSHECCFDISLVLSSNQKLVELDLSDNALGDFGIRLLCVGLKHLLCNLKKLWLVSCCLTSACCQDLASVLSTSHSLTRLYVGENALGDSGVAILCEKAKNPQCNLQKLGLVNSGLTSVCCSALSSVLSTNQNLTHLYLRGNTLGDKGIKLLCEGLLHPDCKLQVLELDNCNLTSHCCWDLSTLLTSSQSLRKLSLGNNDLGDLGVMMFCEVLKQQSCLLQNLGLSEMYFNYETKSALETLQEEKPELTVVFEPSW
# test-details: ASC-SPECK formation in THP-1 cells after gramicidin stimulation (NLRP3 inflammasome activation)
# Type: cell-based
# condition-description: PMA-treated human monocytic THP-1 cells; compound 1 h before 12.5 μg/ml gramicidin, 3-hour treatment; ASC SPECK imaging; read-out: EC50 values (nM) for Examples that inhibit NLRP3 inflammasome activation
Entries and their EC50 values follow.
Report the figure in nM without appending any unit label.

CCN1CCC[C@@H](n2cnc3cc(-c4c(C)cc(C(F)(F)F)cc4O)nnc32)C1	21

Requested read-out: EC50. Entry: `Cc1c(-c2ccc3c(c2O)CCC3)nnc2c1ncn2[C@@H]1CCCN(C)C1`
23

Okay, and CCN1[C@@H]2CC[C@H]1[C@@H](n1cnc3c(C)c(-c4ccc(C(F)(F)F)cc4O)nnc31)CC2 (single isomer, unassigned) ?
889

Record: `Cc1c(-c2ccc(C(F)(F)F)cc2O)nnc2c1ncn2[C@H]1CNCC[C@H]1O`
550
